tested on: green peach aphid (Myzus persicae); experiment: Myzus persicae test (Example A), spray on infested cabbage leaves; assay type: in vivo; conditions: Myzus persicae, 144 h; 500 g/ha, single compound, after 6 d
endpointLabel: mortality at 500 g/ha (%)
Quick reminder: number only, in %, skip the unit.

mortality at 500 g/ha for `O=C(NCCc1ncc(C(F)(F)F)cc1Cl)c1ccccc1C(F)(F)F` is 0

Reported mortality at 500 g/ha ( `CO/N=C(/C1=NOCCO1)c1ccccc1Oc1ncnc(Oc2ccccc2Cl)c1F` ) = 0

# compound `CON=C(C(=O)OC)c1ccccc1CON=C(C)c1cccc(C(F)(F)F)c1` ; its mortality at 500 g/ha = 0

The recorded mortality at 500 g/ha for entry `COC(=O)N(OC)c1ccccc1COc1ccn(-c2ccc(Cl)cc2)n1` equals 0

Form field mortality at 500 g/ha, entry `CNC(=O)/C(=N/OC)c1ccccc1Oc1ccccc1` : 0
